Molecular target: Bile acid receptor (Homo sapiens) (UniProt Q96RI1)
Sequence (Q96RI1 whole entry, looked up): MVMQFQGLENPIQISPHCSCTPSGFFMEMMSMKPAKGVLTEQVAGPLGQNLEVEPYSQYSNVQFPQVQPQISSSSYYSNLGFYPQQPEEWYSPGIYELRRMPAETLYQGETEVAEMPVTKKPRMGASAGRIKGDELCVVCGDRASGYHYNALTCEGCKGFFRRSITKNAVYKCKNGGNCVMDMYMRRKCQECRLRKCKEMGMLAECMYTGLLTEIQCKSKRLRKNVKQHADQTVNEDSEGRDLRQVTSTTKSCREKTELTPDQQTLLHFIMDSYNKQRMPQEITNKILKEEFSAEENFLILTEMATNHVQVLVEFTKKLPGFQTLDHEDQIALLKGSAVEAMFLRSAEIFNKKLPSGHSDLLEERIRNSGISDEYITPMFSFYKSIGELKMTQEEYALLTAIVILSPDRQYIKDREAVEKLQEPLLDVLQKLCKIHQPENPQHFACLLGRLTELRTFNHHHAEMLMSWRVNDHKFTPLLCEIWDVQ
Assay: qHTS assay for small molecule antagonists of farnesoid X receptor signaling (AID 588526)
Details: HEK293T FXR-UAS-bla, beta-lactamase ratio, antagonist mode; series mostly up to 76.7 µM
Records with an inconclusive call do not appear. Activity calls are given as the source filed them. Calls follow the shape of the full dose curve.
outcomeMeasure: outcome

In [3]: df
Out[3]:
                                   molecule  outcomemeasure  measured
0  CS/C(C)=N/OC(=O)N(C)SN(C)C(=O)O/N=C(\C)SC         outcome  inactive
1                CNC(=O)Oc1cccc(N=CN(C)C)c1         outcome  inactive
2  CNC(=O)Oc1cccc2c1OC(C)(C)C2O (configuration not stated)         outcome  inactive
3          CN(C)c1nc(=O)n(C2CCCCC2)c(=O)n1C         outcome  inactive
4                            Brc1ccc(Br)cc1         outcome  inactive

Lab request: please report outcome under test system Bile acid receptor (Homo sapiens) (UniProt Q96RI1) for CCCCC(CC)COC(=O)Cl (configuration not stated)
inactive

Lab request: please report outcome under test system Bile acid receptor (Homo sapiens) (UniProt Q96RI1) for "C#CCC1=C(C)[C@H](OC(=O)[C@H]2[C@H](C=C(C)C)C2(C)C)CC1=O"
inactive

These entries and their values trace back to PubChem BioAssay (NCATS).
